Test system: CHRC5 cell line
Assay: Tested for in vitro proliferation and viability of multidrug resistant CHRC5 Chinese hamster cells in the presence and absence of doxorubicin in a modified MTT assay
Assay type: functional, cell-based, Cricetulus griseus
Conditions: Cricetulus griseus, CHRC5
readoutType: pEC50
// scale note: pEC50 = -log10(conc_M); give the bare number

Completed entries (count: 3):
# compound, quantitativeResult
data = [
    ("OC(COc1cccc2ncccc12)CN1CCN(C2c3ccccc3C3CC3c3ccccc32)CC1 (centres undefined)", 7.40),
    ("OC(COc1cccc2ncccc12)CN1CCN(C2c3ccccc3CCc3ccccc32)CC1 (centres undefined)", 7.19),
    ("COc1ccc(CCN(C)CCCC(C#N)(c2ccc(OC)c(OC)c2)C(C)C)cc1OC (centres undefined)", 5.92),
]

Now examine the next entry.
### Prompt Param item = OC(COc1cccc2ncccc12)CN1CCN(C2c3ccccc3C3C(c4ccccc42)C3(Cl)Cl)CC1 (stereo in doubt; form 1) ; retrieve measured pEC50.
### Response 7.00
